The entries below are paired with their reported inhibition.
assay: inhibitors of TWEAK-Fn14 signaling, primary screen, luciferase reporter cells, uHTS (AID 1159606); details: TWEAK-stimulated Fn14 reporter cells, luciferase luminescence, 8 h; at 10 µM; stronger effect = higher value
Hit rate of the full screen: of about 360,000 compounds, about 7,300 (2%) were called active. What follows is part of a selection rich in actives, with near analogues and random picks from the rest.
RESULT TYPE: inhibition (%)

> print(dat)
                                    compound  result.type  observed.measurement
 1  O=C(c1ccc(Oc2ccc(Cl)cc2)c([N+](=O)[O-])c1)N1CCCC1   inhibition                 -4.37
 2    C[C@H]1COc2cc(N3CCSCC3)ccc2S(=O)(=O)N1   inhibition                 -13.1
 3      O=C(O)c1ccc(N/N=C/c2ccc3ncccc3c2)cc1   inhibition                  95.2
 4   COCCNC(=O)c1ccccc1-c1nc(-c2ccccc2Cl)no1   inhibition                 -18.8
 5             CCNC(=S)NNC(=O)c1ccc2ncccc2c1   inhibition                  1.76
 6  CCOc1ccc(CCNC(=O)COC(=O)C2CCN(c3ccc(C(F)(F)F)cn3)CC2)cc1OCC   inhibition                  6.43
 7  O=C(CN1CCN(S(=O)(=O)c2ccc(F)cc2)CC1)NC1CC1   inhibition                  0.09
 8  CC1CCN(C(=O)c2ccc(S(=O)(=O)Cc3cc(F)ccc3F)c([N+](=O)[O-])c2)CC1   inhibition                  83.4
 9       COc1ccc(C=C(C#N)C#N)c(CSc2ccccn2)c1   inhibition                  9.11
10      CC(C)(C)OC(=O)N/N=C/c1ccc(C(=O)O)cc1   inhibition                 -4.99
11  CCCCN1C(=O)CC(N2CCOCC2)C1=O (stereo unspecified)   inhibition                 -9.74

* * *

experiment: inhibitors of TWEAK-Fn14 signaling, primary screen, luciferase reporter cells, uHTS (AID 1159606); conditions: TWEAK-stimulated Fn14 reporter cells, luciferase luminescence, 8 h; at 10 µM; stronger effect = higher value
In all, about 360,000 compounds went through this assay and about 7,300 (2%) were called active. The entries come from a sample that favours actives as a whole.
RESULT TYPE: inhibition (%)

> print(dat)
                                    compound  result.type  unit.text  observed.measurement
 1             CCc1ccc2oc(-c3ccc(N)cc3)nc2c1   inhibition          %                  60.2
 2  CC1CCCC(C)N1C(=O)COC(=O)c1ccccc1C(=O)c1ccccc1 (centres undefined)   inhibition          %                  3.29
 3                    COc1ccc(NC(=S)SC)cc1OC   inhibition          %                  68.3
 4  CCC(=O)N1Cc2cc(C(=O)NCc3cccc(F)c3)nc(-c3cccc(C4=CCCC4)c3)c2[C@H]1CCO   inhibition          %                 -7.06
 5        CNc1cncc(-c2ccc(NS(C)(=O)=O)cc2)n1   inhibition          %                  34.6
 6  Cc1ccc(Cn2cc(CN3CC(N4CCN(C)CC4)CS3(=O)=O)nn2)cc1 (centres undefined)   inhibition          %                 -2.98
 7  CC(C)(C)C(=O)c1c(N)[nH]c(C(=O)c2ccccc2)c1-c1ccc(F)cc1   inhibition          %                 -3.63
 8  COc1ccc(CCNC(=S)NC(=O)/C=C/c2ccc(C)cc2)cc1OC   inhibition          %                 -15.4
 9  COc1ccccc1/C=C/C=N/n1c(-c2ccc(Cl)cc2Cl)n[nH]c1=S   inhibition          %                 -13.9
10  CCCc1ccc(S(=O)(=O)N2CCN(C(=O)c3cc(C)on3)CC2)cc1   inhibition          %                  23.6
11      O=C(COc1ccccc1)N1CCN=C1SCc1cccc(F)c1   inhibition          %                 -2.31
12  O=C(NCc1cccnc1)c1cc(C2CCCN(C(=O)C3CCCCC3)C2)on1 (centres undefined)   inhibition          %                 -5.87
13  CCN(CC)c1ncnc2c1ncn2[C@H]1CN(Cc2cccs2)C[C@@H](CO)O1   inhibition          %                 -23.3
14  Fc1ccc(/C=N/n2c(COc3ccccc3)n[nH]c2=S)cc1   inhibition          %                 -16.7
15  Cn1nccc1C(=O)NC1CCCc2c1cnn2-c1ccc(F)cc1F (centres undefined)   inhibition          %                  18.5
16  S=c1[nH]nc(-c2cccnc2)n1/N=C/C(Cl)=C\c1ccccc1   inhibition          %                  55.4
17  Cc1cccc(C)c1NC(=O)CN1CCN(c2ccc(F)cc2)CC1   inhibition          %                     0
18  Cc1cc(Br)ccc1NC(=O)c1sc2ncn(CC(=O)N3CCN(c4ccccn4)CC3)c(=O)c2c1C   inhibition          %                  9.08
19  COc1ccc(CNC(=O)COC(=O)CCS(=O)(=O)c2ccc(C)cc2)cc1OC   inhibition          %                 -0.44
20  COc1ccc2nc(Nc3nc(-c4cc5ccccc5oc4=O)cs3)sc2c1   inhibition          %                  64.4
21  COc1cccc(/C=N/Nc2cc(C)nc(-c3ccccc3O)n2)c1O   inhibition          %                    59
22  O=C(Nc1ccc(N2CCOCC2)cc1)c1cccc2c(-c3ccc(F)c(F)c3)coc12   inhibition          %                   -28
23        COc1ccc(Cl)cc1C=CC=NNC(=O)c1ccncc1   inhibition          %                 -16.2
24        COc1ccc(Nc2ncc(F)c(N3CCOCC3)n2)cc1   inhibition          %                  60.1
25  COc1ccc(NC(=O)C2C3CCC(O3)C2C(=O)O)cc1OC (centres undefined)   inhibition          %                  2.27
26  CCN1CCN(c2sc(S(C)(=O)=O)nc2S(=O)(=O)c2ccc(Cl)cc2)CC1   inhibition          %                  31.6
27  COc1ccccc1-n1c(SCC(=O)Nc2cccc(C(=O)O)c2)nnc1-c1ccccc1O   inhibition          %                  8.74
28  COc1ccc(NC(=O)CSCc2ccc([N+](=O)[O-])cc2)cc1OC   inhibition          %                  6.35
29             Nc1cccc(OCCCCCOc2cccc(N)c2)c1   inhibition          %                 -9.63
30  CN(C)CCCNC(=O)c1cc(C(=O)Cc2ccc(Cl)cc2)c[nH]1   inhibition          %                  5.27
31  Cc1noc(C)c1CSCC(=O)Nc1nc2ccc(Oc3ccccc3)cc2s1   inhibition          %                  -4.3
32  O=C(NCc1ccccc1)C1c2ccccc2OCC(=O)N1C1CC1 (centres undefined)   inhibition          %                  4.34
33  OC[C@@H]1CN(Cc2cccs2)C[C@H](n2cnc3c(NC4CCCC4)ncnc32)O1   inhibition          %                  3.36
34  Oc1c(CN2CCN(c3ccc(F)cc3)CC2)cc(Cl)c2cccnc12   inhibition          %                   104
35    S=c1[nH]nc(-c2ccco2)n1/N=C/c1ccc(Br)s1   inhibition          %                 -5.12
36    Oc1c(CN2CCCC2)cc(COCc2ccccc2)c2cccnc12   inhibition          %                  9.88
37  COC(=O)c1ccccc1Oc1c(F)c(F)nc(N2CCOCC2)c1F   inhibition          %                 -14.1
38      Cc1cc(C(=O)N2CCN(c3ccccn3)CC2)c(C)o1   inhibition          %                 -12.8
39  Cc1cccc(N2CCN(C(=O)COCc3cc(-c4ccc5c(c4)OCO5)on3)CC2)c1C   inhibition          %                 -13.9
40  Cc1cc(Br)ccc1NC(=O)c1cnc(N2CCN(c3ccccn3)CC2)c2ccccc12   inhibition          %                  80.5
41  O=C(CCc1ccccc1)Nc1cccc(-c2nnc(-c3ccco3)o2)c1   inhibition          %                  52.6
42  CN1CCN(C(=O)c2ccc(NC(=O)c3ccc(Br)o3)cc2)CC1   inhibition          %                  2.47
43  O=C(Nc1cccc(-c2nnc(-c3ccccc3)o2)c1)C1CCCO1 (centres undefined)   inhibition          %                  10.7
44  O=c1[nH][nH]c2c1[C@H](c1ccc(Cl)cc1)O[C@H](CCc1ccccc1)C2   inhibition          %                  9.82
